Data origin, for the record: paper PMC8325119

system: K562 cell line; assay: SRB cytotoxicity assay, K562 leukaemia cell line; details: Homo sapiens, K562, 72 h, read-out: Cytotoxicity IC50 value, K562 cell line, SRB, 72 h, 0.1-200 μg/mL range, mean ± SD; NI = lack of cytotoxicity in range
Threshold 50 µM: IC50 strictly smaller gives Y, otherwise N.

molecule="CCn1cc(C(=O)O)c(=O)c2cc(F)c(Nc3cccc(OC)c3)c([N+](=O)[O-])c21 [11b]" group=N
molecule=CCCCc1ccc(Nc2c(F)cc3c(=O)c(C(=O)O)cn(C4CC4)c3c2[N+](=O)[O-])cc1 group=Y
molecule=CCCCc1ccc(Nc2c(F)cc3c(=O)c(C(=O)O)cn(C4CC4)c3c2N)cc1 group=Y
molecule=CCCCCCc1ccc(Nc2c(F)cc3c(=O)c(C(=O)O)cn(C4CC4)c3c2N)cc1 group=N
